Would you kindly list normalized growth for each of these compounds?
Protocol Summary: chemical genetic growth profiling, strain panel (AID 1159580);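 further: tested at 20 µM; growth read once vehicle control cultures reached saturation at 30 °C; 1 = growth at the plate median or of vehicle wells; lower values mean less growth of the strain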
Details: S. cerevisiae deletion strains, growth OD, locus YKL190W, strain CNB1, stronger effect = lower value
Screen size: about 5,500 compounds; about 2,000 (36%) were called active. Roughly 18% stayed inconclusive and do not appear here. Some of the results follow.
One number for each entry.

Some solved entries appear below for comparison.
[
  {
    "Compound": "CO[C@@H]1[C@@H](OC(N)=O)[C@@H](O)[C@H](Oc2ccc3c(O)c(NC(=O)c4ccc(O)c(CC=C(C)C)c4)c(=O)oc3c2C)OC1(C)C",
    "normalized growth": 0.993
  },
  {
    "Compound": "O=C(O)CN(CCN(CC(=O)O)CC(=O)O)CC(=O)O",
    "normalized growth": 0.94
  },
  {
    "Compound": "NS(=O)(=O)c1cc2c(cc1C(F)(F)F)NC(Cc1ccccc1)NS2(=O)=O (stereo not given)",
    "normalized growth": 1
  },
  {
    "Compound": "Cc1c(C(N)=O)cc([N+](=O)[O-])cc1[N+](=O)[O-]",
    "normalized growth": 0.996
  }
]

**Q:** # lookup: normalized growth of `Cc1cc(N)c2ccccc2[n+]1CCCCCCCCCC[n+]1c(C)cc(N)c2ccccc21`
**A:** 0.0496

Numbers sourced from PubChem BioAssay AID1159580.
